- system name: TGF-βRI (Homo sapiens)
- Sequence (P36897 34-503): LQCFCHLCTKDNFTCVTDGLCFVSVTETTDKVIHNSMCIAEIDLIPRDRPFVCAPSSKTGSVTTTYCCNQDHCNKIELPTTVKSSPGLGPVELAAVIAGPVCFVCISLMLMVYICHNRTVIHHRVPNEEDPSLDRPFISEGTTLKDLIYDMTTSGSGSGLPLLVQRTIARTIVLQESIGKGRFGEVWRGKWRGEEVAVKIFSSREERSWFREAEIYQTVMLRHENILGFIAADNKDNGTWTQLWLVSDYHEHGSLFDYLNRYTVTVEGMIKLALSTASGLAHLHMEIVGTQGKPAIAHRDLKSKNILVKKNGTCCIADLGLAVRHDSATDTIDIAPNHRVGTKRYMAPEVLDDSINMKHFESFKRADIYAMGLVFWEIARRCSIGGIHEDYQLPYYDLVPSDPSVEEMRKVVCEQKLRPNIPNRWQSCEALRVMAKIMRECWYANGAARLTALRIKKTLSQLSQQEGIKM
pIC50: −log10 of the molar value.
reported property: pIC50

Completed entries (count: 5):
Cc1cccc(-c2nn3c(c2-c2ccc4ncnn4c2/C=C/C(N)=O)CCC3)n1 [Embodiment 1] | 7.30 to 9.00
Cc1cccc(-c2nn3c(c2-c2ccc4ncnn4c2/C=C/C(=O)NCCO)CCC3)n1 [Embodiment 5] | 6.30 to 7.30
CNC(=O)/C=C/c1c(-c2c(-c3cccc(C)n3)nn3c2CCC3)ccc2ncnn12 [Embodiment 2] | 6.30 to 7.30
Cc1cccc(-c2nn(Cc3cccc(C#N)c3)cc2-c2ccc3ncnn3c2/C=C/C(N)=O)n1 [Embodiment 6] | 6.30 to 7.30
Cc1cccc(-c2nn(C3CCCC3)cc2-c2ccc3ncnn3c2/C=C/C(N)=O)n1 [Embodiment 7] | 6.30 to 7.30

Task: Record request: pIC50 value, item Cc1cccc(-c2nn3c(c2-c2ccc4ncnn4c2/C=C/C(=O)NC2CC2)CCC3)n1 [Embodiment 4]
Output: 6.30 to 7.30

Task: Another: Cc1cc(C)nc(-c2nn3c(c2-c2ccc4ncnn4c2/C=C/C(N)=O)CCC3)c1 [Embodiment 11]
Output: < 6.30

Task: Another: CCNC(=O)/C=C/c1c(-c2c(-c3cccc(C)n3)nn3c2CCC3)ccc2ncnn12 [Embodiment 3]
Output: 6.30 to 7.30
